- assay.explanation: Half life in mouse at 10 mg/kg, po
- Format: ADME, organism-based
- measurement.parameters: in vivo
outcome.measure: half-life (h)

                                     smiles  quantitative_result
0  CCN1CCN(Cc2ccc(NC(=O)c3cc(Cl)cc(NC(=O)c4cncc(-c5cccs5)c4)c3)cc2C(F)(F)F)CC1                 5.71

* * *

- System: Plasmodium falciparum
- assay.explanation: Resistance index, ratio of EC50 for multidrug-resistant Plasmodium falciparum Dd2 at ring stage infected in A+ erythrocytes to EC50 for drug-sensitive Plasmodium falciparum 3D7 at ring stage infected in A+ erythrocytes
- Type: organism-based
- measurement.parameters: human
Item-by-item account of Ratio EC50
outcome.measure: Ratio EC50

In [3]: df
Out[3]:
                                     smiles  quantitative_result
0  CCN1CCN(Cc2ccc(NC(=O)c3ccc(OC)c(NC(=O)c4cncc(-c5cccs5)c4)c3)cc2C(F)(F)F)CC1                  1.9
1  O=C(Nc1cccc(C(F)(F)F)c1)c1cc(Cl)cc(NC(=O)c2cncc(-c3cccs3)c2)c1                  2.1
2  CCN1CCN(Cc2ccc(NC(=O)c3cc(NC(=O)c4cncc(-c5cccs5)c4)c(C)cc3F)cc2C(F)(F)F)CC1                  1.1
3  CCN1CCN(Cc2ccc(NC(=O)c3cc(Cl)cc(NC(=O)c4cncc(C#N)c4)c3)cc2C(F)(F)F)CC1                    1

* * *

- assay.explanation: Clearance in mouse at 10 mg/kg, po
- Type: ADME, organism-based
- measurement.parameters: in vivo
outcome.measure: CL/F (mL/min/kg)

In [3]: df
Out[3]:
                                     smiles  unit_symbol  quantitative_result
0  CCN1CCN(Cc2ccc(NC(=O)c3cc(Cl)cc(NC(=O)c4cncc(-c5cccs5)c4)c3)cc2C(F)(F)F)CC1    mL/min/kg                  109

* * *

- System: Plasmodium falciparum
- assay.explanation: Antimalarial activity against artemisinin/piperaquine-sensitive synchronized early ring stage Plasmodium falciparum IPC 5188 (MRA-1239) clinical isolate assessed as decrease in parasite survival at ring stage at 10 times EC50 treated for 6 to 48 hrs followed by compound removal measured after 72 hrs by geimsa staining based microscopy
- Assay type: functional, organism-based
pEC50: −log10 of the molar value.
Item-by-item account of pEC50
outcome.measure: pEC50

>>> df
                                     smiles  outcome_measure  quantitative_result
0  CCN1CCN(Cc2ccc(NC(=O)c3cc(Cl)cc(NC(=O)c4cncc(-c5ccc(C#N)cc5)c4)c3)cc2C(F)(F)F)CC1            pEC50                 7.36
1  CCN1CCN(Cc2ccc(NC(=O)c3cc(Cl)cc(NC(=O)c4cncc(-c5cccs5)c4)c3)cc2C(F)(F)F)CC1            pEC50                 7.13

* * *

Item-by-item account of selectivity ratio
- assay.explanation: Selectivity index, ratio of EC50 for human MCF7 cells to EC50 for multidrug-resistant Plasmodium falciparum Dd2 at ring stage infected in A+ erythrocytes
- Format: toxicity, cell-based
- measurement.parameters: read-out: Ratio EC50
outcome.measure: selectivity ratio

>>> df
                                     smiles  result
0  O=C(Nc1ccnc(N2CCOCC2)c1)c1cc(Cl)cc(NC(=O)c2cncc(-c3cccs3)c2)c1      20
1  CCN1CCN(Cc2ccc(NC(=O)c3ccc(OC)c(NC(=O)c4cncc(-c5cccs5)c4)c3)cc2C(F)(F)F)CC1     3.3
2  CCN1CCN(Cc2ccc(NC(=O)c3cc(Cl)cc(NC(=O)c4cncc(-c5cccs5)c4)c3)cc2)CC1     127
3  CCN1CCN(Cc2ccc(NC(=O)c3ccnc(NC(=O)c4cncc(-c5cccs5)c4)c3)cc2C(F)(F)F)CC1       8
4  CCN1CCN(Cc2ccc(NC(=O)c3cc(Cl)cc(C(=O)Nc4cncc(-c5cccs5)c4)c3)cc2C(F)(F)F)CC1      49
